assay: in vivo; details: dog, po, 200 mg/kg
QUANTITY_NAME: concentration at 3 h (ng/mL)
Kindly provide the numeric value in ng/mL only, without the unit symbol.

Please indicate concentration at 3 h recorded for O=C(O)[C@H](O)[C@@H](O)CO [calcium L-threonate]
46000

###

experiment: in vivo; details: dog, po, 200 mg/kg
QUANTITY_NAME: concentration at 0.5 h (ng/mL)
Your answer should be a plain number; it is taken to be in ng/mL.

Give the value of concentration at 0.5 h reported for the following: O=C(O)[C@H](O)[C@@H](O)CO [calcium L-threonate]
23100

###

assay: in vivo; conditions: rat, in vivo, po, 200 mg/kg
Recorded measurements of AUC, one per entry
Write it as a number; the unit ng·h/mL goes unstated.

Look over these answered cases.
> print(dat)
                                   compound  quantity.name  reported
1                 CC(=O)O [calcium acetate]            AUC     28200
2  O=C(O)[C@H](O)[C@@H](O)CO [calcium L-threonate]            AUC    192000
3  O=C(O)[C@H](O)[C@@H](O)[C@H](O)[C@H](O)CO [calcium gluconate, reference compound]            AUC    138000

Please find the next compound below.
# return recorded AUC for input O=C(O)O [calcium carbonate]
40400
